Body weight of the animals, end, Second time for assorted compounds
# System: Lewis lung cancer;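 further: mice implanted subcutaneously in the axilla with Lewis lung tumor cells, treated starting the following day, killed roughly three weeks after implantation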
# run.parameters: Lewis lung cancer; Dosage 50 (mg/ml), ip × 10qd; second time
recorded.metric: Body weight of the animals, end, Second time (g)

c1ccc(Cn2c3ccccc3c3ccncc32)cc1 | 25.2
CCCCn1c2ccccc2c2cc(C(=O)O)ncc21 | 25.3
CCOC(=O)c1cc2c([nH]c3ccccc32)c(C)n1 [Compound 11, ethyl 1-methyl-β-carboline-3-carboxylate] | 23.8
O=C(O)c1cc2c3ccccc3n(Cc3ccccc3)c2cn1 | 24.3

* * *

melting point for assorted molecules
recorded.metric: melting point

CC(=O)COc1cc2c(cn1)[nH]c1ccccc12 [Compound 25, 3-acetylmethoxy-β-carboline] | 131 to 132 °C
Cn1c2ccccc2c2cc(C(=O)O)ncc21 [Compound 34, 9-methyl-β-carboline-3-carboxylic acid] | 267 to 269 °C
CCOC(=O)c1cc2c3ccccc3n(C)c2cn1 [Compound 30, ethyl 9-methyl-β-carboline-3-carboxylate] | 139 to 140 °C
CCCCn1c2ccccc2c2cc(C(=O)OCC)ncc21 [Compound 32, ethyl 9-butyl-β-carboline-3-carboxylate] | 76 to 77 °C

* * *

# Tested on: Kunming mice
# run.parameters: female mice, 300 mg/kg, single i.p.
recorded.metric: Death rate

CCCCn1c2ccccc2c2cc(C(=O)O)ncc21 [Compound 36, 9-butyl-β-carboline-3-carboxylic acid] | 40
CCOC(=O)Nc1cc2c3ccccc3n(Cc3ccccc3)c2cn1 [Compound 55] | 60
CCOC(=O)c1cc2c([nH]c3ccccc32)c(C)n1 [Compound 11, ethyl 1-methyl-β-carboline-3-carboxylate] | 100
O=C(O)c1cc2c3ccccc3n(Cc3ccccc3)c2cn1 [Compound 37, 9-benzyl-β-carboline-3-carboxylic acid] | 100
CCOC(=O)c1cc2c3ccccc3n(Cc3ccccc3)c2cn1 [Compound 33, ethyl 9-benzyl-β-carboline-3-carboxylate] | 100
c1ccc(Cn2c3ccccc3c3ccncc32)cc1 [Compound 84, 9-Benzyl-β-carboline] | 40
COC(=O)c1cc2c([nH]c3ccccc32)c(-c2ccc(O)cc2)n1 [Compound 16] | 40
OCc1cc2c3ccccc3n(Cc3ccccc3)c2cn1 [Compound 42, 9-benzyl-3-hydroxymethyl-β-carboline] | 80
O=C(O)c1cc2c3ccccc3n(CCCc3ccccc3)c2cn1 [Compound 48] | 100

* * *

# measurement.protocol: in vivo
# run.parameters: both, mouse, ip
recorded.metric: LD50 at 2 weeks (mg/kg)

O=C(O)c1cc2c3ccccc3n(CCCc3ccccc3)c2cn1 | 219

* * *

# System: Hela
# measurement.protocol: In vitro cytotoxicity, IC50 by MTT method, Hela
# Assay type: cell-based
# run.parameters: Hela cell strain; read-out: IC50 Hela
IC50 for assorted molecules
recorded.metric: IC50 (µM)

Cc1nc(C(=O)O)cc2c3ccccc3n(Cc3c(F)c(F)c(F)c(F)c3F)c12 | 110
CCOC(=O)c1cc2c3ccccc3n(CC(=O)c3ccccc3)c2c(C)n1 | 60
CCOC(=O)c1cc2c3ccccc3n(Cc3c(F)c(F)c(F)c(F)c3F)c2c(C)n1 | 20
CCn1c2ccccc2c2cc(C(=O)NN)ncc21 [Compound 51, 3-carbohydrazine 9-ethyl-β-carboline] | 240
O=C(Cn1c2ccccc2c2cc(C(=O)O)ncc21)c1ccccc1 | 70
Cc1nc(C(=O)O)cc2c3ccccc3n(CC(=O)c3ccccc3)c12 | 2480

* * *

# Tested on: PLA-801
# measurement.protocol: In vitro cytotoxicity, IC50 by MTT method, PLA-801
# Assay type: cell-based
# run.parameters: PLA-801, MTT; read-out: IC50
pIC50: −log10 of the molar value.
recorded.metric: pIC50

COc1ccc2c3ccnc(C)c3n(Cc3ccccc3)c2c1 [Compound 6, 9-benzyl-7-methoxy-1-methyl-β-carboline] | 4.22
CCOC(=O)Nc1cc2c(cn1)[nH]c1ccccc12 [Compound 23, 3-[(ethoxycarbonyl)amino]-β-carboline] | 2.67
COc1ccc2c3ccnc(C)c3n(Cc3c(F)c(F)c(F)c(F)c3F)c2c1 [Compound 7] | 3.38
CCCc1nc(C(=O)OCC)cc2c1[nH]c1ccccc12 [Compound 13, ethyl 1-propyl-β-carboline-3-carboxylate] | 3.17
CC(=O)COc1cc2c(cn1)[nH]c1ccccc12 [Compound 25, 3-acetylmethoxy-β-carboline] | 3.11
